- System: Tobacco mosaic virus
- protocolText: In vivo antiviral activity against TMV assessed as protection effect at 500 ug/mL
- Assay type: functional
Entries and their measured Activity follow.

query: Which Activity is listed for "COc1c(C(=O)NCc2ccc(F)cc2)ccc2nc(Cc3ccc(F)cc3)n(C)c(=O)c12" ?
result: 17.7%

query: Returns the measured Activity for the input compound. Input: "Cn1c(-c2cccs2)nc2ccc(C(=O)NCc3ccc(F)cc3)c(O)c2c1=O"
result: 9.8%

query: For the compound shown here, "Cn1c(Cc2ccc([N+](=O)[O-])cc2)nc2ccc(C(=O)NCc3ccc(F)cc3)c(O)c2c1=O" , give the reported Activity.
result: 16.8%

query: Given the compound COc1c(C(=O)NCc2ccc(F)cc2)ccc2c1C(=O)N(C)C(c1cccs1)N2 (centres undefined) , what is its reported Activity?
result: 5.4%

Further cases:
query: Activity for COc1c(C(=O)NCc2ccc(F)cc2)ccc2c1C(=O)N(C)C(c1ccco1)N2 (centres undefined) ?
result: 0%

query: May I ask what Activity has been recorded for COc1c(C(=O)NCc2ccc(F)cc2)ccc2c1C(=O)N(C)C(c1ccccn1)N2 (centres undefined) ?
result: 8.7%

query: Which Activity value is on record for "NC(=O)c1ncn([C@@H]2O[C@H](CO)[C@@H](O)[C@H]2O)n1" ?
result: 39.6%

query: Quick one: Activity for "COc1c(C(=O)NCc2ccc(F)cc2)ccc2nc(-c3ccccn3)n(C)c(=O)c12" ?
result: 19.5%

query: Which measured Activity value corresponds to "COc1c(C(=O)NCc2ccc(F)cc2)ccc2nc(-c3ccco3)n(C)c(=O)c12" ?
result: 11.7%

query: // lookup Activity for "COc1c(C(=O)NCc2ccc(F)cc2)ccc2nc(-c3ccc(F)cc3)n(C)c(=O)c12"
result: 7.4%

query: What value of measured Activity is listed for COc1c(C(=O)NCc2ccc(F)cc2)ccc2c1C(=O)N(C)C(c1ccc([N+](=O)[O-])cc1)N2 (centres undefined) ?
result: 20.3%

query: Given the entry COc1c(C(=O)NCc2ccc(F)cc2)ccc2c1C(=O)N(C)C(c1ccc(F)cc1)N2 (centres undefined) , report its measured Activity.
result: 28.9%

query: Could you share which Activity value was measured for "COc1c(C(=O)NCc2ccc(F)cc2)ccc2nc(-c3cccs3)n(C)c(=O)c12" ?
result: 12.7%

query: Entry under review: "COc1c(C(=O)NCc2ccc(F)cc2)ccc2nc(Cc3ccc([N+](=O)[O-])cc3)n(C)c(=O)c12" . Reported Activity?
result: 12.4%

The reported numbers originate from ChEMBL document CHEMBL2034979.
